target: JAK1 (Homo sapiens); assay: JAK1 kinase ADP-Glo assay (Example 60)
Sequence (P23458 850-1154 limits assumed): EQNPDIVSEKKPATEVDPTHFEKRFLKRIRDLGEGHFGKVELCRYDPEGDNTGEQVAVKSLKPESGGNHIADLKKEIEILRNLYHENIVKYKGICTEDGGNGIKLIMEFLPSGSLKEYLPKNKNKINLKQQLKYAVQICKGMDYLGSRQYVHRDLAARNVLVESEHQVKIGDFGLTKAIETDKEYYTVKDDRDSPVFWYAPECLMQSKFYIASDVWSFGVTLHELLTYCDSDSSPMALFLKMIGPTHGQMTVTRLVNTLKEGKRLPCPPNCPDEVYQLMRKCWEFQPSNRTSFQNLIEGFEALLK
Endpoint Label: IC50 (nM)
Numeric only. Scale: nM

// known answers, use as guide
| Compound | Observed Value |
| --- | --- |
| CCc1cc(O)c(F)cc1-c1ccc2c(-c3nc4c([nH]3)CN(C(=O)N3CCCCC3)C4)n[nH]c2c1 | 1.31 |
| CCc1cc(O)c(F)cc1-c1ccc2c(-c3nc4c([nH]3)CN(C(=O)NC)C4)n[nH]c2c1 | 0.241 |
| CCc1cc(O)c(F)cc1-c1cnc2c(-c3nc4c([nH]3)CN(C(=O)C3CC3)C4)n[nH]c2c1 | 0.758 |
| CCc1cc(O)c(F)cc1-c1ccc2c(-c3nc4c([nH]3)CN(C(=O)NCCC#N)C4)n[nH]c2c1 | 0.939 |

Enquiry: # IC50 lookup, item CCc1cc(O)c(F)cc1-c1ccc2c(-c3nc4c([nH]3)CN(C(=O)N3CC[C@H](O)C3)C4)n[nH]c2n1
Return: 57.2

Enquiry: # IC50 lookup, item CCc1cc(O)c(F)cc1-c1ccc2c(-c3nc4c([nH]3)CN(C(=O)[C@H]3CCCN3)C4)n[nH]c2c1
Return: 0.12

Enquiry: # IC50 lookup, item CCOC(=O)N1Cc2nc(-c3n[nH]c4cc(-c5cc(F)c(O)cc5CC)ccc34)[nH]c2C1
Return: 2.9

* * *

target: TYK2 (Homo sapiens, UniProt P29597); assay: TYK2 kinase ADP-Glo assay (Example 60)
Sequence (P29597 871-1187 limits assumed): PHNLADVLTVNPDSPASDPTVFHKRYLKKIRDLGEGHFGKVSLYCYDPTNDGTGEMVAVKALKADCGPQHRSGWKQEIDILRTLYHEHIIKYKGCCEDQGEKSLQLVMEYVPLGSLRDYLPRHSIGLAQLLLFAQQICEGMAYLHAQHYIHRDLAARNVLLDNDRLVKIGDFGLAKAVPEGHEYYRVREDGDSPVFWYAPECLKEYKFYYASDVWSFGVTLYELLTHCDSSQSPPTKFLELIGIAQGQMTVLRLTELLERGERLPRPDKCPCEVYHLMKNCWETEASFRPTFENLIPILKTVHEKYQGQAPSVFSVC
Endpoint Label: pIC50
Kindly note that pIC50 refers to -log10 of the concentration in mol/L and answer with the value alone.

| Molecule | Observed Value |
| --- | --- |
| CCc1cc(O)c(F)cc1-c1ccc2c(-c3nc4c([nH]3)CN(C(=O)N3CC(O)C3)C4)n[nH]c2c1 [MDI-244] | 8.88 |

Enquiry: # pIC50 lookup, item CCc1cc(O)c(F)cc1-c1ccc2c(-c3nc4c([nH]3)CN(C(=O)N3CCC(C#N)C3)C4)n[nH]c2c1 (centres unmarked) [MDI-250]
Return: 9.00

Enquiry: # pIC50 lookup, item CCc1cc(O)c(F)cc1-c1cc(C)c2c(-c3nc4c([nH]3)CN(C(=O)N3CC[C@H](O)C3)C4)n[nH]c2c1 [MDI-240]
Return: 8.27

Enquiry: # pIC50 lookup, item CCNC(=O)N1Cc2nc(-c3n[nH]c4cc(-c5cc(F)c(O)cc5CC)ccc34)[nH]c2C1 [MDI-247]
Return: 8.63

Enquiry: # pIC50 lookup, item CCc1cc(O)c(F)cc1-c1ccc2c(-c3nc4c([nH]3)CN(C(=O)NCCO)C4)n[nH]c2c1 [MDI-248]
Return: 9.24

Enquiry: # pIC50 lookup, item CCc1cc(O)c(F)cc1-c1ccc2c(-c3nc4c([nH]3)CN(C(=O)N3CC[C@@H](O)C3)C4)n[nH]c2c1 [MDI-243]
Return: 9.78

Enquiry: # pIC50 lookup, item CCc1cc(O)c(F)cc1-c1ccc2c(-c3nc4c([nH]3)CN(C(=O)N3CC(C#N)C3)C4)n[nH]c2c1 [MDI-249]
Return: 8.71

Enquiry: # pIC50 lookup, item CCC(=O)N1Cc2nc(-c3n[nH]c4cc(-c5cc(F)c(O)cc5CC)ccc34)[nH]c2C1 [MDI-227]
Return: 8.41

Enquiry: # pIC50 lookup, item CCc1cc(O)c(F)cc1-c1ccc2c(-c3nc4c([nH]3)CN(S(=O)(=O)C3CCCC3)C4)n[nH]c2c1 [MDI-220]
Return: 8.25

Enquiry: # pIC50 lookup, item CCc1cc(O)c(F)cc1-c1ccc2c(-c3nc4c([nH]3)CN(C3CCOCC3)C4)n[nH]c2c1 [MDI-225]
Return: 8.46

Enquiry: # pIC50 lookup, item CCc1cc(O)c(F)cc1-c1ccc2c(-c3nc4c([nH]3)CN(C(=O)C(C)C)C4)n[nH]c2c1 [MDI-228]
Return: 8.32
